Quick list: TGI per entry.
System: CAKI-1 renal
Assay: NCI tumour cell line growth inhibition, 48 h

Consider the reported TGI for these molecules:
- molecule: "CC(C)C[C@H](CC(=O)O)C(=O)N[C@@H](Cc1c[nH]c2ccccc12)C(=O)N[C@@H](C)c1ccccc1"
  reported result: "> 25 µM"
- molecule: "O=C(Nc1ccccc1)c1cc2ccccc2c(N=Nc2cccc([N+](=O)[O-])c2)c1O"
  reported result: "> 100 µM"
- molecule: "Cc1c(C)c2c(c(C)c1OC(=O)CCC(=O)[O-])CCC(C)(CCCCCCCCCCC[P+](c1ccccc1)(c1ccccc1)c1ccccc1)O2 (stereo not given)"
  reported result: "1.34 µM"
- molecule: "N/C(=N\\N=C\\c1cc2ccccc2s1)c1cnccn1"
  reported result: "> 100 µM"

Q. Quick one: TGI for CC(Oc1cc2oc(=O)cc(-c3ccccc3)c2cc1Cl)C(=O)O (stereo not given) ?
A. > 100 µM

---

System: UACC-257 melanoma
Test: NCI tumour cell line growth inhibition, 48 h
quantity: TGI

Consider the reported TGI for these molecules:
- molecule: "Cc1nc2cn3c(c2c(=O)[nH]1)CCCCC3"
  tgt: "UACC-257 melanoma"
  TGI: "> 100 µM"
- molecule: "CCn1cnc(C[C@H](NC(=O)[C@H](CCCCNC(=O)Nc2cc(C(F)(F)F)cc(C(F)(F)F)c2)NC(=O)Nc2cc(C(F)(F)F)cc(C(F)(F)F)c2)C(=O)OC)c1"
  tgt: "UACC-257 melanoma"
  TGI: "> 10 µM"
- molecule: "c1ccc(CN2CCC(=NN3CCCCC3)CC2)cc1"
  tgt: "UACC-257 melanoma"
  TGI: "> 100 µM"
- molecule: "Cc1ccccc1NC(=O)CC1C(=O)Nc2ccccc2S1=O (configuration not stated)"
  tgt: "UACC-257 melanoma"
  TGI: "> 100 µM"
- molecule: "CN(C)CCCNC(=O)N/N=C/c1ccc(O)cc1"
  tgt: "UACC-257 melanoma"
  TGI: "> 100 µM"
- molecule: "CCO/C(O)=C(/C(=N)N1CCOCC1)C(=O)Nc1cccc(C(F)(F)F)c1"
  tgt: "UACC-257 melanoma"
  TGI: "> 100 µM"
- molecule: "Cc1cc(=O)oc2c(C3=NN(C=O)C(c4ccccc4)C3)c(O)ccc12 (configuration not stated)"
  tgt: "UACC-257 melanoma"
  TGI: "> 100 µM"
- molecule: "CC12NC(=C(C#N)C#N)C(C#N)=C3NC(N)=C(C#N)C(=C31)Oc1ccccc12 (configuration not stated)"
  tgt: "UACC-257 melanoma"
  TGI: "> 100 µM"
- molecule: "COc1c(C)c(C/C=C(\\C)CC/C=C(\\C)CC/C=C(\\C)CCC=C(C)C)c(OC)c(OC)c1OC"
  tgt: "UACC-257 melanoma"
  TGI: "> 100 µM"
- molecule: "N=c1c2sc3nc4ccccc4n3c2ncn1Cc1ccccc1"
  tgt: "UACC-257 melanoma"
  TGI: "> 100 µM"

Q. Quick one: TGI for `Cc1cccc2c(N)c3cccc(C(=O)NCC[N+](C)(C)Cc4ccc([N+](=O)[O-])n4C)c3nc12` ?
A. > 80.9 µM

Q. Quick one: TGI for `N/C(=N\N=C\c1cc2ccccc2s1)c1cnccn1` ?
A. > 100 µM
